- assay.system: Rac GTPase-activating protein 1 (Homo sapiens)
- procedure.details: blockers of MgcRacGAP-driven Rac1 GTP hydrolysis – biochemical, ADP Hunter fluorescence, primary and confirmatory, confirmation (AID 624330);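 further: fluorescence reports GDP produced by GAP-driven GTP hydrolysis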
- assay.setup: MgcRacGAP-stimulated Rac1 GTP hydrolysis, at 30 µM, hits give high values, GST-tagged Rac1 F28L mutant substrate
In all, about 340,000 compounds went through this assay and about 2,100 (0.62%) were called active. Only a sample is shown. Entries with a potency or affinity are not part of this list.
The label depends only on inhibition: label 1 if it is at least 5%, label 0 if it is smaller.

- N#C/C(=C\c1ccc2c(c1)OCCO2)C(=O)NC1CCCCC1: label 0

Q) Is the recorded value of inhibition equal to or greater than 5% for this compound? O=C(NN1C(=O)c2ccccc2NC1c1ccc([N+](=O)[O-])o1)c1ccc(Br)cc1 (stereo not given)
A) label 1

Q) Then what about the compound CCCN(CC(=O)Nc1cccc(Br)c1)CC(=O)Nc1ccc(F)c(F)c1F ?
A) label 1

Q) Now the same for Cc1c(C(=O)NC2CC(=O)N(c3ccc4c(c3)OCCO4)C2)cccc1[N+](=O)[O-] (stereo not given)
A) label 1
